- TEST_PROTOCOL: Plasma clearance in Beagle dog at 1 mg/kg, iv
- Assay type: ADME, organism-based, Canis lupus familiaris
- Parameters: dose 1 mg/kg, route intravenous
MEASURED_ENDPOINT: clearance (mL/min/kg)
Numeric only. Scale: mL/min/kg

Exercise: Find the recorded clearance belonging to COc1cc(N2CCN(C(=O)Cn3nc(C(F)(F)F)c(Cl)c3C)CC2)ccc1Cl and report it.
Solution: 9.6

---

- TARGET_ENTITY: Cytochrome P450 2C9 (Homo sapiens, UniProt P11712)
- Sequence (P11712 whole entry): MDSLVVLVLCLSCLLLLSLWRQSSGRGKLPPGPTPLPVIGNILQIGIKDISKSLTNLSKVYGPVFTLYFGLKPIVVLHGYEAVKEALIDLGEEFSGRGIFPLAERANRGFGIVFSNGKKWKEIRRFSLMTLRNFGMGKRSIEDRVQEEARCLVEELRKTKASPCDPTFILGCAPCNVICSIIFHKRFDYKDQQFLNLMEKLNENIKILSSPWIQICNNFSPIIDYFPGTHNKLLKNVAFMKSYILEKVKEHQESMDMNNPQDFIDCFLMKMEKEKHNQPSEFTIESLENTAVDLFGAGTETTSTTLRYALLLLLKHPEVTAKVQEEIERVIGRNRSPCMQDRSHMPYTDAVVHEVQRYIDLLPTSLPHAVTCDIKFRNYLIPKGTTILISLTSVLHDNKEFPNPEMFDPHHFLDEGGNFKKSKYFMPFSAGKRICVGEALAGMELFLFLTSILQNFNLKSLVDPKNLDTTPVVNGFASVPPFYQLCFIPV
pIC50: −log10 of the molar value.
MEASURED_ENDPOINT: pIC50

Exercise: Find the recorded pIC50 belonging to COc1cc(N2CCN(C(=O)Cn3nc(C(F)(F)F)c(Cl)c3C)CC2)ccc1Cl and report it.
Solution: < 5.00

---

- TARGET_ENTITY: Cytochrome P450 2C19 (Homo sapiens, UniProt P33261)
- Sequence (P33261 whole entry): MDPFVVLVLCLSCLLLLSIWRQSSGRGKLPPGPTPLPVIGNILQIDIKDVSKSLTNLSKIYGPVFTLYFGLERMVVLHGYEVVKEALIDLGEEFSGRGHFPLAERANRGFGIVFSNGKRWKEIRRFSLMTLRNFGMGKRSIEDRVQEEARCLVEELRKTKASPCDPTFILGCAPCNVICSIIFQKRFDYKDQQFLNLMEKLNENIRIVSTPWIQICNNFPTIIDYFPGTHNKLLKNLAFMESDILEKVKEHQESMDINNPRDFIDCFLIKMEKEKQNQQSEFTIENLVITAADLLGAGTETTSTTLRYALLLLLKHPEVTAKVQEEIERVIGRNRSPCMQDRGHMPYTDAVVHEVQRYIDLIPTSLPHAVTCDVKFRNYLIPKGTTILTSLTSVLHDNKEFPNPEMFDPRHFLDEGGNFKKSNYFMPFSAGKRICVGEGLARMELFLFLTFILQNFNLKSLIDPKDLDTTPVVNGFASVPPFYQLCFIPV
MEASURED_ENDPOINT: IC50 (µM)
Numeric only. Scale: µM

Exercise: Find the recorded IC50 belonging to COc1cc(N2CCN(C(=O)Cn3nc(C(F)(F)F)c(Cl)c3C)CC2)ccc1Cl and report it.
Solution: 6

---

- TEST_PROTOCOL: Oral bioavailability in Sprague-Dawley rat at 5 mg/kg
- Assay type: ADME, organism-based
- CONDITION_PARAMETERS: in vivo
Measured bioavailability accompanies every entry in the list below.
Numeric only. Scale: %

Exercise: Find the recorded bioavailability belonging to Cc1c(Cl)c(C(F)(F)F)nn1CC(=O)N1CCN(c2ccc(F)cc2)CC1 and report it.
Solution: 10

Exercise: Would you kindly repeat that for COc1cc(N2CCN(C(=O)Cn3nc(C(F)(F)F)c(Cl)c3C)CC2)ccc1Cl ?
Solution: 52

---

- TARGET_ENTITY: Voltage-gated inwardly rectifying potassium channel KCNH2 (Homo sapiens, UniProt Q12809)
- Sequence (Q12809 whole entry): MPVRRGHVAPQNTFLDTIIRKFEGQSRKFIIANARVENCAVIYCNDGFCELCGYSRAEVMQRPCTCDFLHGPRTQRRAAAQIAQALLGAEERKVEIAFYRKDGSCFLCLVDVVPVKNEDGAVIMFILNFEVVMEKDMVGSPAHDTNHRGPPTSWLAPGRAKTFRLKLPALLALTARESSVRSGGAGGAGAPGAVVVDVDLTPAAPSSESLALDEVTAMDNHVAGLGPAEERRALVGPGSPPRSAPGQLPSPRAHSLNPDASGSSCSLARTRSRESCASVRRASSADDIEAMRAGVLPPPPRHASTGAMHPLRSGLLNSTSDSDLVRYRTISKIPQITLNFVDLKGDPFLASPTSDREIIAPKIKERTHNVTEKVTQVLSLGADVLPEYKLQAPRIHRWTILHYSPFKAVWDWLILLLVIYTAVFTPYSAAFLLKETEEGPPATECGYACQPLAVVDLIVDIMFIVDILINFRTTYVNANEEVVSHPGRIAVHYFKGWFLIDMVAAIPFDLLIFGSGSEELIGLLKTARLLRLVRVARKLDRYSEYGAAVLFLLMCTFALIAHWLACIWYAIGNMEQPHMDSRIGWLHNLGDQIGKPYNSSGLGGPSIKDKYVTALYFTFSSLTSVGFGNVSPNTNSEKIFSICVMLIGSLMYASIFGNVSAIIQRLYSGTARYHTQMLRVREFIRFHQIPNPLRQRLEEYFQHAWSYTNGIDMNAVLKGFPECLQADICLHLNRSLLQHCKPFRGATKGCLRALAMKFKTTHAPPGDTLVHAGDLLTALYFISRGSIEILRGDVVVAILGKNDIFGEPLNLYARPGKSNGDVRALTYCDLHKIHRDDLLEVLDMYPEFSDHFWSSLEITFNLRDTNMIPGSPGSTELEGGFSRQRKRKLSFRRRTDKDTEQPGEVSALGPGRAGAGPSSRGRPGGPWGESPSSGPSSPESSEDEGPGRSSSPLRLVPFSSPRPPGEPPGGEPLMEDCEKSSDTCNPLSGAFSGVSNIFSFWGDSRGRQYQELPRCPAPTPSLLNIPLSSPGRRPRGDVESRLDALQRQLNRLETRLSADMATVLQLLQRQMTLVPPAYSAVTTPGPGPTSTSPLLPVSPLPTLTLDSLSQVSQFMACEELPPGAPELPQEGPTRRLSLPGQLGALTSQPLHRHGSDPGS
- TEST_PROTOCOL: Binding affinity to human ERG by patch clamp assay
MEASURED_ENDPOINT: IC50 (µM)
Numeric only. Scale: µM

Exercise: Find the recorded IC50 belonging to COc1cc(N2CCN(C(=O)Cn3nc(C(F)(F)F)c(Cl)c3C)CC2)ccc1Cl and report it.
Solution: 16

---

- TARGET_ENTITY: UniProt P10635
- Sequence (P10635 whole entry): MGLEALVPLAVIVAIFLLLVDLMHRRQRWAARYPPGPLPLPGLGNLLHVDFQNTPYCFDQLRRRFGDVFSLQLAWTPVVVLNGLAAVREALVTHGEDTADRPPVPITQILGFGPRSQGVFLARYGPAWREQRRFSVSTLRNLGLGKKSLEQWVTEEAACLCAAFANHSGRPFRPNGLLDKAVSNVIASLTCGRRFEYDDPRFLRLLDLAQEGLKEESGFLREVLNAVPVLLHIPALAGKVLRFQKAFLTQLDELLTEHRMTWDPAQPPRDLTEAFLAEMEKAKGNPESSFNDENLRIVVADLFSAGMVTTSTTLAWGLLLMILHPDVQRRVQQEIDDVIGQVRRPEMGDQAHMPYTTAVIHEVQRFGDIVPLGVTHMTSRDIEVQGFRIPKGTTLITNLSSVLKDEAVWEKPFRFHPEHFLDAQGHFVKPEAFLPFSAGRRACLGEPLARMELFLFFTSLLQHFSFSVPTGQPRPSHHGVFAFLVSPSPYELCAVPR
MEASURED_ENDPOINT: IC50

Exercise: Find the recorded IC50 belonging to COc1cc(N2CCN(C(=O)Cn3nc(C(F)(F)F)c(Cl)c3C)CC2)ccc1Cl and report it.
Solution: > 10 µM

---

- TEST_PROTOCOL: Plasma clearance in Sprague-Dawley rat at 1 mg/kg, iv
- Type: ADME, organism-based
- Set-up: dose 1 mg/kg, route intravenous
MEASURED_ENDPOINT: clearance
Answer as a quantity: numeral, then unit.

Exercise: Find the recorded clearance belonging to COc1cc(N2CCN(C(=O)Cn3nc(C(F)(F)F)c(Cl)c3C)CC2)ccc1Cl and report it.
Solution: 20 mL/min/kg

---

- TEST_PROTOCOL: Oral bioavailability in Beagle dog at 5 mg/kg
- Type: ADME, organism-based, Canis lupus familiaris
- CONDITION_PARAMETERS: in vivo
MEASURED_ENDPOINT: bioavailability (%)
Numeric only. Scale: %

Exercise: Find the recorded bioavailability belonging to COc1cc(N2CCN(C(=O)Cn3nc(C(F)(F)F)c(Cl)c3C)CC2)ccc1Cl and report it.
Solution: 20

---

- TEST_PROTOCOL: Half life in Sprague-Dawley rat at 0.5 mg/kg, iv
- Assay type: ADME, organism-based
- Design: dose 0.5 mg/kg, route intravenous
- CONDITION_PARAMETERS: in vivo
MEASURED_ENDPOINT: half-life

Exercise: Find the recorded half-life belonging to Cc1c(Cl)c(C(F)(F)F)nn1CC(=O)N1CCN(c2ccc(F)cc2)CC1 and report it.
Solution: 1.9 h

---

- TARGET_ENTITY: C-C chemokine receptor type 1 (Mus musculus)
- Sequence (P51675 whole entry): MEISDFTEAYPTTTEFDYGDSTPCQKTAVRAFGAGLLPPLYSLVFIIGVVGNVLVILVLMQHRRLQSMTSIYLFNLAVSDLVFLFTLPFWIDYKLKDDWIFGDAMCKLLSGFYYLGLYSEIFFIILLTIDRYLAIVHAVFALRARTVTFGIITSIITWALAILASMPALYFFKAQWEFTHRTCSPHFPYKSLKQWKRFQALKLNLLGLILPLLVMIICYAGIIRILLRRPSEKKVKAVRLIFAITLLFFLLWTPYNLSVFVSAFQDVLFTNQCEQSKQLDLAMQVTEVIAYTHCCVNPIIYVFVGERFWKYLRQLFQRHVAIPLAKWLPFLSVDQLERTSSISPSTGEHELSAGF
- TEST_PROTOCOL: Displacement of [125I]-CCL3/MIP-1alpha from CCR1 in mouse WEHI274.1 cells
MEASURED_ENDPOINT: pIC50
pIC50 (log units): -log10 of the concentration in mol/L.

Exercise: I'm curious: which pIC50 was measured for COc1cc(N2CCN(C(=O)Cn3nc(C(F)(F)F)c(Cl)c3C)CC2)ccc1Cl tested on C-C chemokine receptor type 1 (Mus musculus)?
Solution: 5.52
